Attribution: ChEMBL document CHEMBL5321275

# Assay method text: Metabolic stability in mouse liver microsomes assessed as half life in presence of NADPH/UDPGA
# Type: ADME, Microsome
Kindly state half-life for each of the entries shown.
Output spec: scalar in min, unitless text.

half-life reading for CN1CCN(c2cc3c(cc2Nc2nnc(-c4ccc(C(F)(F)F)cc4)s2)nc(-c2ccc(F)cc2)n3C2CC2)CC1 : 377

Lab note: O=c1ccc2ccc(O)cc2o1 gave half-life of 1.54

====

# Assay method text: Metabolic stability in human liver microsomes at 10 uM measured after 120 mins in presence of NADPH-GS by HPLC-MS/MS analysis
# Type: ADME, Microsome
# Experimental conditions: read-out: Stability
Assay readout: remaining at 2 h, 10 µM (%)
Numeric only. Scale: %

Memo: CCCn1c(-c2ccc(F)cc2)nc2cc(Nc3nnc(-c4cc(OC)c(OC)c(OC)c4)s3)c(N3CCN(C)CC3)cc21 , reported remaining at 2 h, 10 µM: 25

For reference, reported remaining at 2 h, 10 µM for COc1cc(-c2nnc(Nc3cc4nc(-c5ccc(F)cc5)n(C5CC5)c4cc3N3CCN(C)CC3)s2)cc(OC)c1OC stands at 32.5
